Target: recombinant human NK3 receptor (Homo sapiens, UniProt P29371)
Construct: expressed in transfected cells; host or cells: HEK293 cells, transient expression; membranes
Experiment: [3H]SR142801 competition binding assay
metric.name: Ki (µM)
Reply numerically in µM, unit not repeated.

Inquiry: Entry COc1cnc(N2CCC(C(=O)N3C[C@@H](N(C)C(=O)Oc4ccc(F)cc4)[C@H](c4ccc(Cl)cc4)C3)CC2)nc1 [Example 190] , system recombinant human NK3 receptor (Homo sapiens, UniProt P29371): what Ki was measured?
Reply text: 0.0172

Inquiry: Also CN(C(=O)Oc1ccccc1)[C@H]1CN(C(=O)C2CCN(CC3CC3)CC2)C[C@@H]1c1ccc(Cl)c(Cl)c1 (racemic) [Example 7] ?
Reply text: 0.0096

Inquiry: Also CN(C(=O)Oc1cccc(C#N)c1)[C@@H]1CN(C(=O)C2CCN(c3ccc(C#N)cn3)CC2)C[C@H]1c1ccc(Cl)cc1 [Example 225] ?
Reply text: 0.0112

Inquiry: Also CN(C(=O)Oc1ccc(F)cc1)[C@@H]1CN(C(=O)C2CCN(C(=O)C3CCC(=O)NC3)CC2)C[C@H]1c1ccc(Cl)c(Cl)c1 (stereo partly drawn) [Example 281] ?
Reply text: 0.0003

Inquiry: Also CN(C(=O)Oc1ccc(F)cc1)[C@@H]1CN(C(=O)C2CCN(c3ccc(F)cn3)CC2)C[C@H]1c1ccc(F)c(Cl)c1 [Example 315] ?
Reply text: 0.0017

Inquiry: Also CN(C(=O)Oc1ccc(F)cc1)[C@@H]1CN(C(=O)C2CCC(F)(F)CC2)C[C@H]1c1ccc(Cl)cc1 [Example 117] ?
Reply text: 0.0174

----------
Biological target: recombinant human NK3 receptor (Homo sapiens, UniProt P29371)
Construct: expressed in transfected cells; host or cells: HEK293 cells, transient expression; membranes
Assay: [3H]SR142801 competition binding assay
metric.name: log10 of Ki (log10 of the value in nM)
Field: value | Transform: log10 | Quantity: Ki | Unit: nM

Inquiry: Entry CC1CC1COC(=O)N(C)[C@H]1CN(C(=O)C2CCN(C(=O)C3(C)CC3)CC2)C[C@@H]1c1ccc(Cl)c(Cl)c1 (mixture of isomers) [Example 92] , system recombinant human NK3 receptor (Homo sapiens, UniProt P29371): what log10 of Ki was measured?
Reply text: 0.36

Inquiry: Also CN(C(=O)Oc1ccc(F)cc1)[C@@H]1CN(C(=O)C2CCN(C(=O)C3(C)CC3)CC2)C[C@H]1c1ccc(Cl)cc1 [Example 39] ?
Reply text: 1.04

Inquiry: Also CN(C(=O)Oc1ccc(F)cc1)[C@@H]1CN(C(=O)C2CCN(C(=O)C3CC3(F)F)CC2)C[C@H]1c1ccc(Cl)cc1 (stereo partly shown) [Example 256] ?
Reply text: 0.41

Inquiry: Also CN(C(=O)Oc1ccc(F)cc1)[C@@H]1CN(C(=O)[C@H]2CC[C@H](O)CC2)C[C@H]1c1ccc(Cl)cc1 [Example 89] ?
Reply text: 1.31

Inquiry: Also Cc1ccc([C@H]2CN(C(=O)C3CCN(C(=O)C4(C)CC4)CC3)C[C@@H]2N(C)C(=O)Oc2ccc(F)cc2)cc1Cl (racemic) [Example 70] ?
Reply text: 0.11

Inquiry: Also CCCCOC(=O)N(C)[C@H]1CN(C(=O)C2CCN(C(=O)C3(C)CC3)CC2)C[C@@H]1c1ccc(Cl)cc1 (racemic) [Example 27] ?
Reply text: 1.49

Inquiry: Also CN(C(=O)Oc1ccc(F)cc1)[C@@H]1CN(C(=O)C2CCN(C(=O)C3CC3(F)F)CC2)C[C@H]1c1ccc(Cl)c(Cl)c1 (stereo partly shown) [Example 274] ?
Reply text: -0.05

Inquiry: Also CCCOC(=O)N(C)[C@@H]1CN(C(=O)C2CCN(c3ccc(C#N)cn3)CC2)C[C@H]1c1ccc(Cl)cc1 [Example 138] ?
Reply text: 1.57

Inquiry: Also CN(C(=O)OCCC(C)(C)O)[C@H]1CN(C(=O)C2CCN(C(=O)C3(C)CC3)CC2)C[C@@H]1c1ccc(Cl)c(Cl)c1 (racemic) [Example 98] ?
Reply text: 1.68

Inquiry: Also CN(C(=O)Oc1ccc(F)cc1)[C@@H]1CN(C(=O)C2CCN(C(=O)c3ccc(C(F)(F)F)cn3)CC2)C[C@H]1c1ccc(F)cc1 [Example 290] ?
Reply text: 2.00

Inquiry: Also CN(C(=O)Oc1ccc(F)cc1)[C@@H]1CN(C(=O)C2CCN(C(=O)C3(C(F)(F)F)CCC3)CC2)C[C@H]1c1ccc(Cl)cc1 [Example 252] ?
Reply text: 0.43

Inquiry: Also CN(C(=O)Oc1ccc(F)cc1)[C@H]1CN(C(=O)C2CCN(C(=O)C3CCOCC3)CC2)C[C@@H]1c1ccc(Cl)c(Cl)c1 (racemic) [Example 76] ?
Reply text: -0.15

Inquiry: Also CN(C(=O)OCCC(F)(F)C(F)(F)F)[C@H]1CN(C(=O)C2CCN(C(=O)C3(C)CC3)CC2)C[C@@H]1c1ccc(Cl)c(Cl)c1 (racemic) [Example 83] ?
Reply text: 0.62

----------
What Ki was measured for each of the following?
Molecular target: recombinant human NK3 receptor (Homo sapiens)
Construct: expressed in transfected cells; host or cells: HEK293 cells, transient expression; membranes
Test: [3H]SR142801 competition binding assay
Reply numerically in nM, unit not repeated.

Inquiry: Entry CN(C(=O)Oc1ccc(F)cc1)[C@@H]1CN(C(=O)C2CCN(C(=O)C3CCOC(C)(C)C3)CC2)C[C@H]1c1ccc(Cl)cc1 (stereo partly drawn) , system recombinant human NK3 receptor (Homo sapiens): what Ki was measured?
Reply text: 2.9

Inquiry: Also CO[C@H]1CC[C@@H](C(=O)N2C[C@H](c3ccc(Cl)c(Cl)c3)[C@@H](N(C)C(=O)Oc3ccc(F)cc3)C2)CC1 (racemic) ?
Reply text: 3.5

Inquiry: Also Cc1ccc(OC(=O)N(C)[C@H]2CN(C(=O)C3CCN(C(=O)C4(C)CC4)CC3)C[C@@H]2c2ccc(Cl)c(Cl)c2)cc1 (racemic) ?
Reply text: 1.2

Inquiry: Also CN(C(=O)Oc1ccc(F)cc1)[C@@H]1CN(C(=O)C2CCN(c3ccc(Cl)cn3)CC2)C[C@H]1c1ccc(Cl)c(F)c1 ?
Reply text: 0.4

Inquiry: Also CN(C(=O)Oc1ccc(F)cc1)[C@H]1CN(C(=O)CCC(N)=O)C[C@@H]1c1ccc(Cl)c(Cl)c1 (racemic) ?
Reply text: 86.1

Inquiry: Also CN(C(=O)Oc1ccc(F)cc1)[C@@H]1CN(C(=O)[C@H]2CC[C@H](C#N)CC2)C[C@H]1c1ccc(Cl)cc1 ?
Reply text: 7.4

----------
Target: recombinant human NK3 receptor (Homo sapiens)
Construct: expressed in transfected cells; host or cells: HEK293 cells, transient expression; membranes
Sequence (P29371 1-465): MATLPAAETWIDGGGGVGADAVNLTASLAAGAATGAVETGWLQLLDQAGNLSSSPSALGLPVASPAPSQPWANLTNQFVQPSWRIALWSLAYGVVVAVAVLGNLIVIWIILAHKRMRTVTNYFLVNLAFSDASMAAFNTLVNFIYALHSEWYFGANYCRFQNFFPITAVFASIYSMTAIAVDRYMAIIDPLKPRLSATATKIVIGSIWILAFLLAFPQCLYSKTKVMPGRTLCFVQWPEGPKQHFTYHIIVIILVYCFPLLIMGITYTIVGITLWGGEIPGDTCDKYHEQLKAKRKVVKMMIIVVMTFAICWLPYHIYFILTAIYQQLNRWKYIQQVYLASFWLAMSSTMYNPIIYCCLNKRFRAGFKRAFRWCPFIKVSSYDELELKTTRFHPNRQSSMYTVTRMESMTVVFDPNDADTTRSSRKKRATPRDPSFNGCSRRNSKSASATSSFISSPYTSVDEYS
Assay: [3H]SR142801 competition binding assay
metric.name: pKi
Scale: pKi equals -log10([C]), with [C] in mol/L.

Inquiry: Any idea what pKi was measured for CN(C(=O)Oc1ccc(F)cc1)[C@@H]1CN(C(=O)C2CCN(C(=O)C3(C(F)(F)F)CCC3)CC2)C[C@H]1c1ccc(F)cc1 ?
Reply text: 7.96

Inquiry: Also Cc1ccnc(N2CCC(C(=O)N3C[C@@H](N(C)C(=O)Oc4ccc(F)cc4)[C@H](c4ccc(Cl)cc4)C3)CC2)n1 ?
Reply text: 8.31

Inquiry: Also CN(C(=O)OCCC(F)(F)F)[C@H]1CN(C(=O)C2CCN(C(=O)C3(C)CC3)CC2)C[C@@H]1c1ccc(Cl)c(Cl)c1 (single isomer, unassigned) [Example 29] ?
Reply text: 7.83

Inquiry: Also CN(C(=O)OCCCC(F)(F)F)[C@H]1CN(C(=O)C2CCN(c3ccc(C#N)cn3)CC2)C[C@@H]1c1ccc(Cl)cc1 ?
Reply text: 7.17

Inquiry: Also CC(=O)N1CCC(C(=O)N2C[C@@H](N(C)C(=O)Oc3ccc(F)cc3)[C@H](c3ccc(Cl)cc3)C2)CC1 ?
Reply text: 8.64

Inquiry: Also CN(C(=O)Oc1ccc(F)cc1)[C@@H]1CN(C(=O)C2CCN(c3ccc(S(C)(=O)=O)cn3)CC2)C[C@H]1c1ccc(Cl)cc1 ?
Reply text: 9.15

// provenance: patent US9226916B2
